# credit: paper PMC9321231

# measuredOn: human neutrophil elastase (HNE) (Homo sapiens, UniProt P08246)
# Sequence (P08246 30-267): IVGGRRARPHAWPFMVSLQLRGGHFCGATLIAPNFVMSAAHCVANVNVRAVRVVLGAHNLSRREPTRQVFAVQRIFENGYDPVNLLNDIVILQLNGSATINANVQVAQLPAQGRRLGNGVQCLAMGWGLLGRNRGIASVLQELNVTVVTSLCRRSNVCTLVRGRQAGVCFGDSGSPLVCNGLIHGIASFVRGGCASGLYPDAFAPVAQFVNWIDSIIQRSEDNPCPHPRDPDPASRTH
# testSummary: Kinetic analysis of the inhibition of human neutrophil elastase (Lineweaver-Burk, Dixon, secondary plots)
# Assay type: biochemical
# conditionDetails: Lineweaver-Burk and Dixon analysis
measurementName: Inhibition Type

>>> result("CCC1(CC)C(=O)N(c2ccc(-c3csc(Nc4ccc(S(N)(=O)=O)cc4)n3)cc2)C1=O")
"mixed type I inhibition"
>>> result("CCC1(CC)C(=O)N(c2ccc(-c3csc(Nc4ccc(C(F)(F)F)cc4)n3)cc2)C1=O")
"mixed"
>>> result("CCC1(CC)C(=O)N(c2ccc(-c3csc(Nc4cc(C)cc(C)c4)n3)cc2)C1=O")
"mixed type I inhibition"
>>> result("CCC1(CC)C(=O)N(c2ccc(-c3csc(Nc4cccc5ccccc45)n3)cc2)C1=O")
"mixed type I inhibition"
